Exercise: for every item that follows, state its recorded GI50.
tested on: UACC-62; experiment: NCI tumour cell line growth inhibition, 48 h
Activity calls are given as the source filed them. No stated cut-off is given here; in the data, active = GI50 up to about 1.1 µM and inactive = higher.

Answer for every listed entry: what is its GI50? The entries follow.
1. O=[N+]([O-])/C(Cl)=C(/C(Cl)=C(Cl)Cl)N1CCCCC1
2. NCCCNCCS
3. OCCSCc1cc(Cl)cc(Cl)c1O
4. N#CCCC1(CCC#N)CCCCCCCCC(CCC#N)(CCC#N)C(=O)C1=O
5. Cc1cc(/N=C/c2ccc(F)cc2)n(-c2ccccc2)n1
6. O=[N+]([O-])c1ccc(C[S+]([O-])Cc2ccccc2)cc1 (configuration not stated)

1. 4.21 µM (inactive)
2. > 100 µM (inactive)
3. > 100 µM (inactive)
4. > 100 µM (inactive)
5. > 100 µM (inactive)
6. > 100 µM (inactive)

---

test system: U-251; experiment: NCI tumour cell line growth inhibition, 48 h
Calls of active or inactive are those of the source. No stated cut-off is given here; in the data, active = GI50 up to about 1.1 µM and inactive = higher.
Field 'call' accepts yes (1) (active), no (0) (inactive)

// known answers, use as guide
* CSc1nc(NC2OCC(O)C(O)C2O)c(N)c(=O)[nH]1 (stereo unspecified) | no (0)
* O=C1C(Cl)=C(Cl)C(=O)N1c1ccc(Cl)c(Cl)c1Cl | no (0)
* O=C(CNc1ccc(Cl)cc1)Nn1c(-c2ccccc2)nc2ccccc2c1=O | no (0)
* CC(=O)NNc1nc(C)c(C(/C=C/c2ccc3c(c2)OCO3)=N/NC(=O)c2ccncc2)s1 | no (0)
* CC1(C)[C@@H]2C[C@H]1c1cnc(-c3ccccn3)cc1[C@H]2C(O)[C@@H]1c2cc(-c3ccccn3)ncc2[C@H]2C[C@@H]1C2(C)C (stereo partly specified) | yes (1)

Outcome? N/N=C(\c1nc2ccc(Cl)cc2nc1O)C(O)c1ccc(Cl)c(Cl)c1 (stereo unspecified)
no (0)

Outcome? `COc1ccc(/N=N/c2c(-c3ccccc3)nn(C(=O)CC(=O)Nc3cccc(Cl)c3)c2-c2ccccc2)cc1`
no (0)

Outcome? CC(O)c1nc(C#N)c(N)o1 (stereo unspecified)
no (0)

Outcome? `OCCNCN(CNCCO)c1nc(N(CNCCO)CNCCO)nc(N(CNCCO)CNCCO)n1`
yes (1)

Outcome? `O=C(Nc1ccccc1C(=O)Nc1nccs1)c1ccccc1`
no (0)

---

test system: OVCAR-8; experiment: NCI tumour cell line growth inhibition, 48 h
Activity calls are given as the source filed them. Rule as the data show it: active = GI50 up to about 1.1 µM and inactive = higher.
Field 'call' accepts active, inactive

// known answers, use as guide
- CCc1cc2c(c3c1CCCC3=O)CC1(Cc3ccc(C(=O)OC)cc3C1)C2 (stereo not drawn): inactive
- CCOC(=O)/C=C(\C)c1ccc(OC)cc1: inactive

Next item in the queue.
Outcome? `CN(C)CCNC(=O)c1cccc2cc3ccc4ccccc4c3nc12`
active

---

system: OVCAR-4; assay: NCI tumour cell line growth inhibition, 48 h
Active and inactive are the calls of the source. Rule as the data show it: active = GI50 up to about 1.1 µM and inactive = higher.
Observed Property: GI50

Some compounds with known GI50 results, for comparison:
* CCOC(=O)C(=[N+]=[N-])C(=O)CN1C(=O)c2ccccc2C1=O | > 100 µM (inactive)
* O=C1Nc2ccc(Br)cc2/C1=N/NC(=S)Nc1ccc([N+](=O)[O-])cc1 | 6.11 µM (inactive)
* COc1ccc(Br)c(/C=N\c2cccc3cc(OC)c(OC)cc23)c1 | 40.6 µM (inactive)
* c1cc(-c2cn3ccsc3n2)ccn1 | > 65.8 µM (inactive)
* CCNC1(c2cccc(C)c2)OC(C)(C)c2cccc3cccc1c23 (stereo unspecified) | 16 µM (inactive)

Answer for every listed entry: what is its GI50? The entries follow.
1. COc1ccc(C(c2ccc(C(C)C)cc(OC)c2=O)c2ccc(C(C)C)cc(OC)c2=O)cc1
2. O=C(/C=C/c1cc2ccccc2o1)N1CCN(c2ccccn2)CC1

1. 12.2 µM (inactive)
2. 49.8 µM (inactive)

Answer for every listed entry: what is its GI50? The entries follow.
1. COc1ccc2c(c1)CC[C@@H]1C2CC[C@]2(C)C(=O)N(CCN(C)C)C(=O)CC12 (stereo partly specified)
2. N#Cc1c(-c2ccc(Cl)cc2)cc(-c2ccc(Nc3ccnc4cc(C(F)(F)F)ccc34)cc2)[nH]c1=O
3. Oc1cc(CN2COc3ccccc32)c(O)cc1CNC1CCCCC1
4. Cc1cc(C)cc(C(=N)c2ccccc2Cc2cccc3ccccc23)c1
5. CC#CC1/C(=C\C(=O)OC)CCCC1O (stereo unspecified)
6. C[C@]12CC(c3ccccc3O1)C(C#N)C(=O)N2 (stereo partly specified)
7. O=c1[nH]c2c(S)nc(O)nc2n1-c1ccccc1

> 100 µM (inactive)
8.41 µM (inactive)
20.3 µM (inactive)
15.8 µM (inactive)
> 100 µM (inactive)
> 100 µM (inactive)
> 100 µM (inactive)

Answer for every listed entry: what is its GI50? The entries follow.
1. O=[N+]([O-])c1ccc(S(=O)(=O)Cc2ccccc2)c([N+](=O)[O-])c1
2. OCCOCCO[P+]1(OCCOCCO)n2c3ccc2C(c2ccccc2)=C2C=CC(=N2)C(c2ccccc2)=c2ccc(n21)=C(c1ccccc1)C1=NC(=C3c2ccccc2)C=C1
3. CCN(CC)CC1c2ccccc2C(CNc2ccccc2)N1C (stereo unspecified)
4. O=[N+]([O-])c1ccc(C[S+]([O-])Cc2ccccc2)cc1 (stereo unspecified)
5. Cc1ccc(/C=N/NS(=O)(=O)c2ccccc2)cc1

1. 2.2 µM (inactive)
2. 0.209 µM (active)
3. > 100 µM (inactive)
4. > 100 µM (inactive)
5. > 100 µM (inactive)

Answer for every listed entry: what is its GI50? The entries follow.
1. Cc1c2c(cc3c1[nH]c1ccccc13)C=NCC2
2. COc1nc(Cl)c(Cl)c(Cl)n1.COc1nc(Cl)nc(Cl)c1Cl
3. CC(=N/NC(=S)N(C)C)/C(=N\NC(=S)N(C)C)c1ccccc1
4. O=C([O-])C1([n+]2c(-c3ccccc3)cc(-c3ccccc3)cc2-c2ccccc2)CC1

16.6 µM (inactive)
6.07 µM (inactive)
2.02 µM (inactive)
96.8 µM (inactive)
